Provide the reported pKi of each item.
target: PCP receptor; assay: [3H]TCP radioreceptor assay (binding to PCP recognition sites); design: species or system rat (male Sprague-Dawley, whole brain); conditions: [3H]TCP approx. 1 nM, rat brain membranes; mean of at least two determinations
Entry type: numeric. Quantity: pKi, the -log10 of concentration in molar units.

Enquiry: Look up pKi of Clc1cccc2[n+]1C1CC(c3ccoc3)(c3ccoc3)C2c2ccccc21.[O-][Cl+3]([O-])([O-])[O-] (stereo not shown) [192(g)] and report it.
Return: 6.20

Enquiry: Give the reported pKi for this compound. CCOC(=O)CCC(=O)Oc1cccc2c1C1c3cccc[n+]3C2CC1(c1ccoc1)c1ccoc1 (stereo not shown) [Example 166]
Return: 7.21

Enquiry: In one line, give reported pKi of the entry COc1cccc2c1C1c3cccc[n+]3C2CC1(c1ccccc1)c1ccccc1.[O-][Cl+3]([O-])([O-])[O-] (stereo not shown) [25(c)] .
Return: 7.41

Enquiry: Input c1ccc2c(c1)C1C3CCc4occc4C3(c3ccoc3)C2c2cccc[n+]21 (stereo not shown) [7(c)] , output reported pKi.
Return: 8.96

* * *

test system: PCP receptor; test: [3H]TCP radioreceptor assay (binding to PCP recognition sites); design: species or system rat (male Sprague-Dawley, whole brain); conditions: inhibition of [3H]TCP binding at 10 μM
I would appreciate it if you labelled entries 1 (yes) when [3H]TCP percent inhibition @ 10 μm is 30% or higher, otherwise 0 (no).

Enquiry: Is it the case that Cc1ccc(C2(c3ccc(C)cc3)CC3c4ccccc4C2c2cccc[n+]23)cc1.[Cl-] (stereo not shown) has [3H]TCP percent inhibition @ 10 μm reaching or exceeding 30%?
Return: 0 (no)

Enquiry: Quick check, [3H]TCP percent inhibition @ 10 μm >= 30%? COc1ccc(CN(c2ccc(C3(c4ccc(N(Cc5ccc(OC)cc5)S(C)(=O)=O)cc4)CC4c5ccccc5C3c3cccc[n+]34)cc2)S(C)(=O)=O)cc1 (stereo not shown)
Return: 1 (yes)

Enquiry: Given the entry c1ccc2c(c1)-c1ccccc1C21CC2c3ccccc3C1c1cccc[n+]12 (stereo not shown) , answer whether its [3H]TCP percent inhibition @ 10 μm meets or surpasses 30%.
Return: 1 (yes)

Enquiry: # bool: [3H]TCP percent inhibition @ 10 μm of FC(F)(F)c1cccc(C2(c3cccc(C(F)(F)F)c3)CC3c4ccccc4C2c2cccc[n+]23)c1.[Cl-] (stereo not shown) >= 30%
Return: 1 (yes)

Enquiry: Is reported [3H]TCP percent inhibition @ 10 μm greater than or equal to 30% here: Brc1ccc(C2(c3ccc(Br)cc3)CC3c4ccccc4C2c2cccc[n+]23)cc1 (stereo not shown)
Return: 0 (no)

Enquiry: Determine whether measured [3H]TCP percent inhibition @ 10 μm meets or exceeds 30% for Cc1ccc(S(=O)(=O)n2nccc2C2(c3ccoc3)CC3c4ccccc4C2c2cccc[n+]23)cc1.[Br-] (single isomer, unassigned)
Return: 1 (yes)

Enquiry: Item c1ccc2c(c1)C1CC(c3nc[nH]n3)(c3nc[nH]n3)C2c2cccc[n+]21 (stereo not shown) with [3H]TCP percent inhibition @ 10 μm of 30% or above?
Return: 1 (yes)

Enquiry: // inclusive: [3H]TCP percent inhibition @ 10 μm at least 30%? input: Clc1ccc(C2(c3ccc(Cl)cc3)CC3c4ccccc4C2c2cccc[n+]23)cc1.F[P-](F)(F)(F)(F)F (stereo not shown)
Return: 1 (yes)

Enquiry: Is [3H]TCP percent inhibition @ 10 μm for [Cl-].c1ccc2c(c1)C1CC(c3ccncc3)(c3ccncc3)C2c2cccc[n+]21 (stereo not shown) [49(E)] at or above 30%?
Return: 1 (yes)

Enquiry: Is the recorded value of [3H]TCP percent inhibition @ 10 μm equal to or greater than 30% for this molecule? Cc1ccc(S(=O)(=O)n2nccc2C2(c3ccoc3)CC3c4cccc(O)c4C2c2cccc[n+]23)cc1 (single isomer, unassigned)
Return: 0 (no)
